- Method Summary: Photochromic PMMA cast film: initial coloration density, maximum absorption wavelength and fatigue life in xenon fadeometer (Example 9)
- Assay type: physicochemical
- Experimental Parameters: PMMA cast film 0.1 mm, xenon light
Would you mind telling me the reported λmax of each entry?
Unit nm implied. Number only.

Record COC12CCC(CC1)C21c2oc3ccccc3c2C(C2CC2(Br)Br)=C2C(=O)N(CC(=O)OC(C)(C)CCC#N)C(=O)C21 (stereo not drawn) [(13)] , field λmax: 495

Record N#CCN1C(=O)C2=C(C3CC3)c3ccsc3C3(C4CCC3CC4)C2C1=O (stereo not drawn) [(2)] , field λmax: 563

Record CN(C)c1ccc2cc(CCCN3C(=O)C4=C(C5CC5)c5c([N+](=O)[O-])csc5C5(C6CC7CC(C6)CC5C7)C4C3=O)ccc2c1 (stereo not drawn) [(47)] , field λmax: 529

Record O=C1OC(=O)C2C1=C(C1CC1)c1cc([N+](=O)[O-])sc1C21C2CC3CC(C2)CC1C3 (stereo not drawn) [(59)] , field λmax: 524

Record Cn1c2c(c3ccccc31)C1(C3CC4CC(C3)CC1C4)C1C(=O)N(CC(C)(C)CCOC(=O)CBr)C(=O)C1=C2C1CC1CCCc1ccccc1 (stereo not drawn) [(38)] , field λmax: 592

Record CCC(C(=O)OCCc1ccc2ccccc2c1)N1C(=O)C2=C(C)c3ccsc3C3(C4CC5CC(C4)CC3C5)C2C1=O (stereo not drawn) [(A), reference compound] , field λmax: 520

Record O=C1OC(=O)C2C1=C(C1CC1)c1c(oc3ccccc13)C21C2CCC1CC2 (stereo not drawn) [(52)] , field λmax: 534

Record CNC(=O)CCC(=O)CCN1C(=O)C2=C(C3CC3SC)c3ccn(C)c3C3(C4CCC3(C)CC4)C2C1=O (stereo not drawn) [(15)] , field λmax: 613

Record COC12CCCC(CCC1)C21c2c(Cl)csc2C(C2CC2CCc2ccccc2)=C2C(=O)N(CC(=O)NCCBr)C(=O)C21 (stereo not drawn) [(28)] , field λmax: 526

Record COc1cc2c(c(OC)c1OC)C1(C3CC4CC1CC(OC)(C4)C3)C1C(=O)N(CC(=O)NCCBr)C(=O)C1=C2C1CC1C(Cl)(Cl)Cl (stereo not drawn) [(39)] , field λmax: 527

Record COC(=O)CN1C(=O)C2=C(C3CC3)c3ccoc3C3(C4CCC3CC4)C2C1=O (stereo not drawn) [(20)] , field λmax: 531

Record CCC(C(=O)OCCc1ccc2ccccc2c1)N1C(=O)C2=C(C3CC3)c3ccsc3C3(C4CC5CC(C4)CC3C5)C2C1=O (stereo not drawn) [(5)] , field λmax: 532

Record CC(C)COC(=O)CN1C(=O)C2=C(C3C(CCl)C3CCl)c3cc(Br)sc3C3(C4CCCC3CCC4)C2C1=O (stereo not drawn) [(23)] , field λmax: 539

Record CNC(=O)CN1C(=O)C2=C(C3CC3C(F)(F)F)c3cc([N+](=O)[O-])sc3C3(C4CCC3CC4)C2C1=O (stereo not drawn) [(11)] , field λmax: 530

Record COCCOCN1C(=O)C2=C(C3(F)C(F)(F)C3(F)F)c3c(oc4ccccc34)C3(C2C1=O)C1(F)CCC3(F)CC1 (stereo not drawn) [(16)] , field λmax: 498

====

Would you mind telling me the reported T1/2 of each entry?
- Method Summary: Durability of poly(allyl diglycol carbonate) lens impregnated with the compound in silicone oil, as in Example 9 (Example 10)
- Format: physicochemical
- Experimental Parameters: silicone oil impregnation, xenon fadeometer
Unit h implied. Number only.

Record Cc1cc2c(s1)C1(C3CCC1CC3)C1C(=O)N(C[N+](=O)[O-])C(=O)C1=C2C1CC1 (stereo not shown) , field T1/2: 80

Record N#CCN1C(=O)C2=C(C3CC3)c3ccsc3C3(C4CCC3CC4)C2C1=O (stereo not shown) , field T1/2: 91

Record CCCC1CC1C1=C2C(=O)N(C(C)C(C)=O)C(=O)C2C2(c3oc(OC)cc31)C1CCCC2CCC1 (stereo not shown) , field T1/2: 85

Record CCOc1cc2c(s1)C1(C3CCCC1CCC3)C1C(=O)OC(=O)C1=C2C1CC1 (stereo not shown) , field T1/2: 61
